STUDY_TARGET: Mitogen-activated protein kinase 14 (Mus musculus)
Sequence (P47811 whole entry): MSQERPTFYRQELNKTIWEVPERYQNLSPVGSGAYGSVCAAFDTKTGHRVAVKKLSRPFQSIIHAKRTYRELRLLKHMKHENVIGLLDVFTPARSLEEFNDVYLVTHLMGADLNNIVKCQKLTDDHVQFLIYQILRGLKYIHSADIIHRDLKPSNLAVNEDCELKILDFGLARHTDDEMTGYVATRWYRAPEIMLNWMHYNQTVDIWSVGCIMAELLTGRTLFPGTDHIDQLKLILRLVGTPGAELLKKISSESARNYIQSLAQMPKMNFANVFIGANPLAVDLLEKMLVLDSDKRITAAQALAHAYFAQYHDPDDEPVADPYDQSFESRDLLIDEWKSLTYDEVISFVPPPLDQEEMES
EXPERIMENTAL_PROTOCOL: Inhibition of murine p38 alpha MAP kinase
READOUT_KIND: pIC50
Please express pIC50 as -log10 of the molar concentration.

These solved cases illustrate the format of a correct answer.
CC(C)(C)c1nc(-c2ccncc2)c(-c2ccccc2)[nH]1 = 6.35
OC1(c2nc(-c3ccncc3)c(-c3ccc(F)cc3)[nH]2)CCCC1 = 7.10
OC1(c2nc(-c3ccncc3)c(-c3ccc(F)cc3)[nH]2)CCCCCC1 = 7.12
CN1CCC(O)(c2nc(-c3ccc(F)cc3)c(-c3ccncc3)[nH]2)CC1 = 7.05

Field pIC50 (entry CN1CCC(O)(c2nc(-c3ccncc3)c(-c3ccc(F)cc3)o2)CC1 ) reads 5.70
